# protocol details: Cytotoxicity against human MRC5 cells
# Type: cell-based
# applied conditions: read-out: MNCC
Below is a list of entries, each paired with its recorded MNTC value.
measurement type: MNTC

smiles_input=O=c1cc(CCl)oc(CN2CCN(Cc3cccc(C(F)(F)F)c3)CC2)c1O measurement_type=MNTC observed_measurement="≥ 512 µg/mL"
smiles_input=O=c1cc(CCl)oc(CN2CCN(Cc3cc(F)ccc3F)CC2)c1O measurement_type=MNTC observed_measurement="≥ 256 µg/mL"
smiles_input=O=c1cc(CCl)oc(CN2CC=C(c3ccccc3)CC2)c1O measurement_type=MNTC observed_measurement="≥ 256 µg/mL"
smiles_input=O=c1cc(CCl)oc(CN2CCN(c3ccccc3F)CC2)c1O measurement_type=MNTC observed_measurement="≥ 128 µg/mL"
smiles_input=O=c1cc(CCl)oc(CN2CCN(Cc3ccccc3)CC2)c1O measurement_type=MNTC observed_measurement="≥ 512 µg/mL"
smiles_input=O=c1cc(CCl)oc(CN2CCN(c3ccc(C(F)(F)F)cc3)CC2)c1O measurement_type=MNTC observed_measurement="≥ 128 µg/mL"
smiles_input=O=c1cc(CCl)oc(CN2CCN(c3ccc([N+](=O)[O-])cc3)CC2)c1O measurement_type=MNTC observed_measurement="≥ 512 µg/mL"
smiles_input=Cc1ccccc1N1CCN(Cc2oc(CCl)cc(=O)c2O)CC1 measurement_type=MNTC observed_measurement="≥ 128 µg/mL"
smiles_input=O=c1cc(CCl)oc(CN2CCN(Cc3ccc(Cl)cc3)CC2)c1O measurement_type=MNTC observed_measurement="≥ 128 µg/mL"
smiles_input=N#CC1(c2ccccc2)CCN(Cc2oc(CCl)cc(=O)c2O)CC1 measurement_type=MNTC observed_measurement="≥ 256 µg/mL"
smiles_input=Cc1cccc(CN2CCN(Cc3oc(CCl)cc(=O)c3O)CC2)c1 measurement_type=MNTC observed_measurement="≥ 512 µg/mL"

The reported numbers originate from ChEMBL document CHEMBL2390844.
